The reported measurements were obtained from patent US9890147B2.

# system_tested: BRD4 (BD1) (Homo sapiens, UniProt O60885)
# Construct: with relatively long constructs also being possible, preferably amino acids 44-168
# procedure_summary: Binding assay BRD4/acetylated peptide H4 (TR-FRET protein-protein interaction assay)
experimental_endpoint: pIC50
// field semantics: pIC50 = negative decimal log of concentration (mol/L)

Guide cases for pIC50, answers given:
molecule="COC(=O)N1N=C(c2ccc(N3CCN(C)CC3)cc2)c2cc(OC)c(OC)cc2CC1C (racemic) [Example 259]" numeric_readout=6.28
molecule="CNC(=O)N1N=C(c2ccc(N3CCC(OC)CC3)cc2)c2cc(OC)c(OC)cc2C[C@H]1C [Example 179.1]" numeric_readout=5.42
molecule="CNC(=O)N1N=C(c2ccc(N3CC(OC)C3)cc2)c2cc(OC)c(OC)cc2CC1C (racemic) [Example 187]" numeric_readout=7.10
molecule="CNC(=O)N1N=C(c2ccc(-n3cnnn3)cc2)c2cc(OC)ccc2C[C@@H]1C [Example 30]" numeric_readout=6.64
molecule="CNC(=O)N1N=C(c2ccc(N3CCOCC3)cc2)c2cc(OC)ccc2C[C@@H]1C [Example 17]" numeric_readout=7.40
molecule="CNC(=O)N1N=C(c2ccc(Cl)cc2)c2cc(OCCN3CCN(C)CC3)ccc2CC1C (racemic) [Example 166]" numeric_readout=6.57

Please examine the following record next.
Memo: CNC(=O)N1N=C(c2ccc(N3CCN(C)CC3)cc2)c2cc(OC(F)(F)F)ccc2C[C@@H]1C [Example 250.2] , reported pIC50: 7.70
